Listed compounds paired with reported Inhibition of ^86Rb influx, % maximum
Target: Ca^2+-activated K+ channel (Gardos channel) of sickle erythrocytes (Homo sapiens, UniProt O15554)
Construct: Blood was collected after obtaining informed consent from patients; endogenous in cells; host or cells: erythrocytes (SS) from patients homozygous for Hb S
Assay: Ca^2+-activated ^86Rb influx in sickle (SS) erythrocytes
Type: cell-based
Conditions: SS erythrocytes; medium 140 mM salt (normal saline)
Method: Patients homozygous for Hb S disease were selected. Blood was collected after obtaining informed consent from patients followed in the Hematology Division Clinic at Brigham and Women's Hospital and in the Boston Comprehensive Sickle Cell Center at Boston City Hospital. None of the patients had been transfused in the preceding 120 days. Other experiments were carried out in normal saline (140 mM NaCl, 2 mM KCl, 10 mM tris-HCl, pH 8.0). […]
quantity_measured: Inhibition of ^86Rb influx, % maximum

{"compound": "CCS(=O)(=O)CCn1c([N+](=O)[O-])cnc1C", "result": "3%"}
{"compound": "Cc1ncc([N+](=O)[O-])n1CCO", "result": "36%"}
{"compound": "OC(Cn1cncn1)(Cn1cncn1)c1ccc(F)cc1F", "result": "0%"}
{"compound": "Cc1ncc([N+](=O)[O-])n1CC(O)CCl (stereo not shown)", "result": "21%"}

---

Biological target: Ca^2+-activated K+ channel (Gardos channel) of sickle erythrocytes (Homo sapiens, UniProt O15554)
Construct: Blood was collected after obtaining informed consent from patients; endogenous in cells; host or cells: erythrocytes (SS) from patients homozygous for Hb S
Test: Ca^2+-activated ^86Rb influx in sickle (SS) erythrocytes
Type: cell-based
Details: medium 20 mM salt (low ionic strength), Dixon plot analysis, read-out: Inhibition of ^86Rb influx, IC50
quantity_measured: IC50 (nM)

{"structure_smiles": "Cc1ncc([N+](=O)[O-])n1CCO", "quantitative_readout": 850}

---

Molecular target: Ca^2+-activated K+ channel (Gardos channel) of sickle erythrocytes (Homo sapiens, UniProt O15554)
Construct: Blood was collected after obtaining informed consent from patients; endogenous in cells; host or cells: erythrocytes (SS) from patients homozygous for Hb S
Test: Ca^2+-activated ^86Rb influx in sickle (SS) erythrocytes
Type: cell-based
Conditions: SS erythrocytes; medium 140 mM salt (normal saline); Dixon plot analysis; read-out: Inhibition of ^86Rb influx, IC50

{"compound": "Cc1ncc([N+](=O)[O-])n1CCO [Metronidazole, 2-methyl-5-nitroimidazole-1-ethanol]", "IC50 [nM]": 440}

---

Molecular target: Ca^2+-activated K+ channel of SS cells (Homo sapiens, UniProt O15554)
Construct: Blood was collected after obtaining informed consent from patients; endogenous in cells; host or cells: erythrocytes (SS) from patients homozygous for Hb S
Experiment: Displacement of ^125I-ChTX binding in sickle erythrocytes
Conditions: SS erythrocytes; medium 20 mM salt; read-out: ^125I-ChTX displacement, IC50
Protocol: White cells were removed by passing 0.8 mL of packed red cells through a 5 ml syringe containing a mixture of equal parts of alfa-cellulose and microcrystalline cellulose as originally described by Beutler and West [J. Lab. Clin. Med. 88:328-333 (1976)]. […] The washed red cell pellet was then lysed in 1 ml of 0.01% Acationox®, and counted in a gamma counter. Aliquots of binding medium were counted prior to addition of cells and at the end of the binding assay. […]
quantity_measured: IC50

{"seq_string": "CHARYBDOTOXIN", "result": "0.033 nM"}

---

Molecular target: Ca^2+-activated K+ channel (Gardos channel) of sickle erythrocytes (Homo sapiens, UniProt O15554)
Construct: Blood was collected after obtaining informed consent from patients; endogenous in cells; host or cells: erythrocytes (SS) from patients homozygous for Hb S
Experiment: Ca^2+-activated ^86Rb influx in sickle (SS) erythrocytes
Format: cell-based
Conditions: medium 20 mM salt (low ionic strength), Dixon plot analysis, read-out: Inhibition of ^86Rb influx, IC50

{"seq_string": "CHARYBDOTOXIN", "IC50 [nM]": 0.096}

---

Listed compounds paired with reported Inhibition of ^86Rb influx, % maximum
Target: Ca^2+-activated K+ channel (Gardos channel) of sickle erythrocytes (Homo sapiens, UniProt O15554)
Construct: Blood was collected after obtaining informed consent from patients; endogenous in cells; host or cells: erythrocytes (SS) from patients homozygous for Hb S
Assay: Ca^2+-activated ^86Rb influx in sickle (SS) erythrocytes
Type: cell-based
Conditions: medium 20 mM salt (low ionic strength)

{"compound": "CCS(=O)(=O)CCn1c([N+](=O)[O-])cnc1C [Tinidazole]", "Inhibition of ^86Rb influx, % maximum [%]": 21}
{"compound": "OC(Cn1cncn1)(Cn1cncn1)c1ccc(F)cc1F [Fluconazole]", "Inhibition of ^86Rb influx, % maximum [%]": 0}
{"compound": "Cc1ncc([N+](=O)[O-])n1CC(O)CCl (stereo not shown) [Ornidazole]", "Inhibition of ^86Rb influx, % maximum [%]": 11}
{"compound": "Cc1ncc([N+](=O)[O-])n1CCO [Metronidazole, 2-methyl-5-nitroimidazole-1-ethanol]", "Inhibition of ^86Rb influx, % maximum [%]": 28}

---

Target: Ca^2+-activated K+ channel (Gardos channel) of sickle erythrocytes (Homo sapiens, UniProt O15554)
Construct: Blood was collected after obtaining informed consent from patients; endogenous in cells; host or cells: erythrocytes (SS) from patients homozygous for Hb S
Test: Ca^2+-activated ^86Rb influx in sickle (SS) erythrocytes
Type: cell-based
Conditions: SS erythrocytes; medium 140 mM salt (normal saline); Dixon plot analysis; read-out: Inhibition of ^86Rb influx, IC50
pIC50: −log10 of the molar value.

{"seq_string": "CHARYBDOTOXIN", "pIC50": 9.44}

---

Molecular target: Ca^2+-activated K+ channel of SS cells (Homo sapiens, UniProt O15554)
Construct: Blood was collected after obtaining informed consent from patients; endogenous in cells; host or cells: erythrocytes (SS) from patients homozygous for Hb S
Experiment: Displacement of ^125I-ChTX binding in sickle erythrocytes
Settings: SS erythrocytes; medium 20 mM salt; read-out: ^125I-ChTX displacement, IC50
pIC50: −log10 of the molar value.

{"structure_smiles": "Cc1ncc([N+](=O)[O-])n1CCO", "system_tested": "Ca^2+-activated K+ channel of SS cells (Homo sapiens, UniProt O15554)", "pIC50": 6.24}
